Assignment: determine reported AUC for the given compounds.
Test system: Mus musculus
Experiment notes: AUC (0 to infinity) in C57/BL6 mouse at 20 mg/kg, po measured up to 24 hrs post dose by LC-MS/MS analysis
Format: ADME, organism-based
Set-up: dose 20 mg/kg, route oral, time infinity
Condition: in vivo
Numbers only, in µM·min.

// solved cases for AUC follow
{"Smiles input": "CN1CCN(c2ccc(NC(=O)c3cc(N(C)Cc4ccc(C(F)(F)F)cc4)ncn3)cc2)CC1", "AUC (µM·min)": 564}
{"Smiles input": "CN(Cc1ccc(C(F)(F)F)nc1)c1cc(C(=O)Nc2nncs2)ncn1", "AUC (µM·min)": 5614}
{"Smiles input": "CN(Cc1ccc(C(F)(F)F)cc1)c1cc(C(=O)Nc2ccccc2)ncn1", "AUC (µM·min)": 1334}

# batch: return AUC for each of the 2 compounds below
1. CN(Cc1ccc(C(F)(F)F)nc1)c1cc(C(=O)Nc2ccccc2)ncn1
2. CN(Cc1ccc(F)cc1)c1cc(C(=O)Nc2nncs2)ncn1

**Result**
1: 1999; 2: 1022
